biological target: Ephrin type-A receptor 4 (Homo sapiens) (UniProt P54764); settings: at 1 µM
Sequence (P54764 whole entry): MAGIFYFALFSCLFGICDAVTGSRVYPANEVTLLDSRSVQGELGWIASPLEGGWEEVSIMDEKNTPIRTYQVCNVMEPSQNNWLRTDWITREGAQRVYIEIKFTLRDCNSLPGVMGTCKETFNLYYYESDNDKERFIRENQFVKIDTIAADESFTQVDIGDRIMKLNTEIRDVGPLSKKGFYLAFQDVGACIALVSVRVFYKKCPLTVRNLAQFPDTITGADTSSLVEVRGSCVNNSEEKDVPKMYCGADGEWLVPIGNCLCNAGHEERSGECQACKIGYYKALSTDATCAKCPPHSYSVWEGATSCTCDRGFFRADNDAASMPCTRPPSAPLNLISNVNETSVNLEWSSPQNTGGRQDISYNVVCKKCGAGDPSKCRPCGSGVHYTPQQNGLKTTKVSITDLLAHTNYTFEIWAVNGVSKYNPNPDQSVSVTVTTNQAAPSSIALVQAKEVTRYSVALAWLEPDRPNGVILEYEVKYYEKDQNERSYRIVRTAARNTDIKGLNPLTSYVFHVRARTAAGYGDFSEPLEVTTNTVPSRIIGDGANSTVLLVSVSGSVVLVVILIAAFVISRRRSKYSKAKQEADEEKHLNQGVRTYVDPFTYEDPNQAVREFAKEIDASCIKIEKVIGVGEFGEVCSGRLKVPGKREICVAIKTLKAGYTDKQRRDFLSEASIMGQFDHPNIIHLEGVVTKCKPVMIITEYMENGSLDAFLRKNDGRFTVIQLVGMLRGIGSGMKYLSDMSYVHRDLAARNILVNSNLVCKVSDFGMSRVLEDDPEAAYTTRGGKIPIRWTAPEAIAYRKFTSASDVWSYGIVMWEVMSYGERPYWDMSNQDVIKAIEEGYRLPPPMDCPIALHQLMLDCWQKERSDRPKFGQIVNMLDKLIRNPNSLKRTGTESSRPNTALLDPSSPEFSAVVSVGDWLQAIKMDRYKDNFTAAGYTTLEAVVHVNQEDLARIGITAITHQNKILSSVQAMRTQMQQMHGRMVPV
Description: GSK_PKIS: EPHA4 mean inhibition at 1 uM [Nanosyn]
List of inhibition values.
Answer format: numeric, % implied, no suffix.

The examples below pair each entry with its known result.
[
  {
    "compound": "CCN1CCC(C(=O)Nc2n[nH]c3nnc(-c4cccc(F)c4F)cc23)CC1",
    "test-target": "Ephrin type-A receptor 4 (Homo sapiens) (UniProt P54764)",
    "unit-abbrev": "%",
    "observed-value": -0.26
  },
  {
    "compound": "N#Cc1cccc(Nc2ncc(-c3ccccc3)o2)c1",
    "test-target": "Ephrin type-A receptor 4 (Homo sapiens) (UniProt P54764)",
    "unit-abbrev": "%",
    "observed-value": 8.39
  },
  {
    "compound": "CC(C)c1ccc(-c2cc(-c3c[nH]nc3-c3ccccn3)ccn2)cc1",
    "test-target": "Ephrin type-A receptor 4 (Homo sapiens) (UniProt P54764)",
    "unit-abbrev": "%",
    "observed-value": 4.1
  },
  {
    "compound": "CNC(=O)c1cncc(/C=C/c2ccccc2C)c1",
    "test-target": "Ephrin type-A receptor 4 (Homo sapiens) (UniProt P54764)",
    "unit-abbrev": "%",
    "observed-value": 26.1
  },
  {
    "compound": "CN1CCC(n2cnc(-c3ccc(F)cc3)c2-c2ccnc(NCCO)n2)CC1",
    "test-target": "Ephrin type-A receptor 4 (Homo sapiens) (UniProt P54764)",
    "unit-abbrev": "%",
    "observed-value": 14.7
  }
]

Now consider a different compound.
Prompt line: Which inhibition is listed for `COC(=O)Nc1nc2cc(Oc3ccc(NC(=O)Nc4ccccc4)cc3)ccc2[nH]1` ?
Response line: 11.2
